Target: Hyper-IL-6 (IL-6 and sIL-6R fusion, flexible linker) (Homo sapiens, UniProt P08887 113-323+P05231:29-212, internal_change)
Experiment: filter binding
metric-name: pKd
Keep in mind that pKd stands for -log10 of concentration in molar terms.

Problem: I would be grateful if you could share the reported pKd for GGGGAGGCUGUGGUGAGGG (structured_RNA) [AIR-3A] .
Result: 7.22
